Values compiled from patent US20220064314A1.

For each of the binders below, state its pKd.
biological target: T1, 4-1BB (CD137), antigen of the Octet kinetics (UniProt Q07011 24-186, limits assumed); test: Octet (BLI), mono-valent binding kinetics
T1 construct: also called TNFRSF9
One number for each entry, as −log10 of the molar value.

[
  {
    "Binder": "huG28.21.G2.4.4 (antibody, human IgG2, kappa, V domains shown, also called huG28.21.4.4) VH: EVQLQQSGAEVKKPGATVKLSCKASGFNIKDYYIHWVNQRPGQGLEWIGRIDPEDGDIAYAPKFQDRATLTVDTSTNTAYLELSSLRSEDTAVYYCTTGNYYAMDFWGQGTTVTVSS VL: QIVLTQSPATLSASPGERVTLSCTASSSVSSSYLHWYQQKPGSSPKLWIYSTSNLASGVPARFSGSGPGTSYTLTISSMEPEDAATYYCHQYHRSPPTFGQGTKLEIKR",
    "pKd": 7.98
  },
  {
    "Binder": "huG28.21.G2.1.4 (antibody, human IgG2, kappa, V domains shown, also called huG28.21.1.4) VH: EVQLVQSGAEVKKPGATVKISCKASGFNIKDYYIHWVNQAPGKGLEWIGRIDPEDGDIAYAPKFQDRVTLTVDTSTDTAYLELSSLRSEDTAVYYCTTGNYYAMDFWGQGTTVTVSS VL: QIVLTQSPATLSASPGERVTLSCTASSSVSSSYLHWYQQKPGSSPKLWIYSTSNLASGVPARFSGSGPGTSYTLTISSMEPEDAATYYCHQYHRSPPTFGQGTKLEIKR",
    "pKd": 7.82
  }
]

Consider the record given below.
# get_value(readout='pKd', item= cAB 137QL.G28.21.G2 (antibody, human IgG2, V domains shown, Chimeric antibody; also called Chimeric G28.21; cAb G28.21.G2) VH: EVQLQQSGAELVRPGASVKLSCTASGFNIKDYYIHWVNQRPEQGLEWIGRIDPEDGDIAYAPKFQDKATLTVDTSSNTAYLHIIGLTSEDTAVYYCTTGNYYAMDFWGQGTSVTVSS VL: QIVLTQSPAIMSASLGERVTMTCTASSSVSSSYLHWYQQKPGSSPKLWIYSTSNLASGVPARFSGSGSGTSYSLTISSMEAEDAATYYCHQYHRSPPTFGSGTKLEIK )
7.85
